tested_system: Retinoic acid receptor RXR-alpha (Homo sapiens)
assay_remarks: OT_NURR1_NURR1RXRa_0480: Odyssey Thera (OT) 8-hour HEK293T Protein Complementation Assay for Nurr1/retinoid X receptor (RXR) (AID 2283385)
Inconclusive results are not listed. Calls of active or inactive are those of the source. The calls were made as follows: active = hit-call score of the fitted dose curve at least 0.9, where 1 is the maximum; inconclusive = response in the unintended direction; inactive = score below 0.9.
Hello, when you answer, please use one of the following outcomes: yes (1) = active, no (0) = inactive

Query string: GET /call?item= `CC(C)CCCCCCOC(=O)CCCCC(=O)OCCCCCCC(C)C` returns the recorded outcome of this test.
Result string: no (0)

Query string: Look up the recorded call for `COC(=O)CCCCC(=O)OC` in this test.
Result string: no (0)

Query string: Assay result, entry `Nc1cccc2c(N)cccc12` — outcome?
Result string: no (0)

Query string: Please let me know the test result on file for COCC(C)OCC(C)O (stereo not given) .
Result string: no (0)

Query string: Query: recorded result category for CCCCC(CC)COC(=O)CCCCC(=O)OCc1ccccc1 (stereo not given) in this test
Result string: no (0)

Query string: Which outcome did this test record for the molecule `CCCCCCCCC(=O)O` ?
Result string: no (0)

Query string: Recorded test outcome, item `CCCCCCCCCCCCN1CCCC1=O`
Result string: yes (1)

Query string: Field: outcome | Entry: CCCCC(CC)COC(=O)CCCCC(=O)OCC(CC)CCCC (stereo not given)
Result string: no (0)

Query string: How was `C[C@@H]1C[C@H]2[C@@H]3CCC4=CC(=O)C=C[C@]4(C)[C@@]3(F)[C@@H](O)C[C@]2(C)[C@@]1(O)C(=O)COP(=O)(O)O` classified in this test?
Result string: no (0)

Query string: Which outcome was entered for the molecule CC(O)CO (stereo not given) in this test?
Result string: no (0)

---

tested_system: human CYP2B6, CYP2B6 (gene 1555) (UniProt P20813)
Sequence (P20813 whole entry, looked up): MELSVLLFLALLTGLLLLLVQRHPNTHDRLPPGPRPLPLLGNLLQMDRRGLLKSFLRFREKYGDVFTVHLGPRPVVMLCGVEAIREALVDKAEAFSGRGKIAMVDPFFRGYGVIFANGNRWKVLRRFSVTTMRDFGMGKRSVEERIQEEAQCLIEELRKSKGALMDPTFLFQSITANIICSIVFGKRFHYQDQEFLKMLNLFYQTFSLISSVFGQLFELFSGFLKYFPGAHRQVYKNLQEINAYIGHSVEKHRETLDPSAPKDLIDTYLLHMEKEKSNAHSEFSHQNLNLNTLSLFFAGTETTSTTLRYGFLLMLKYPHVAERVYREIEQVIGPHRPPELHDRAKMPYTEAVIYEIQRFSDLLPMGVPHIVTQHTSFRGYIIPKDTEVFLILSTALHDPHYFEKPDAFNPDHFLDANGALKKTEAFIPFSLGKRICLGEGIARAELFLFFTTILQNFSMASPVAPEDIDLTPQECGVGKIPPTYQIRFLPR
assay_remarks: NVS_ADME_hCYP2B6: NovaScreen (NVS) CYP450-related Enzyme Activity (ADME) Assay for human CYP2B6 (AID 2283101)
Results filed as inconclusive are left out. Active and inactive are the calls of the source. Rule for the calls: active = hit-call score of the fitted dose curve at least 0.9, where 1 is the maximum; inconclusive = response in the unintended direction; inactive = score below 0.9.
Classes to choose from: active, inactive

Query string: For this compound, state the assay outcome: `CCCOC(=O)c1ccc(O)cc1`
Result string: inactive

Query string: How was `COc1ccc([N+](=O)[O-])cc1N` classified in this test?
Result string: inactive

Query string: What call does the record list for `Oc1cc2ccccc2c2ccccc12` ?
Result string: active

Query string: Fill in: this test's call for `CCCOc1sc(C(=O)N2CCC(c3cc(CN)ccc3F)CC2)c(C)c1Br` is ___
Result string: active

---

Read-out: cysteine-aspartic acid protease (CASP8), CASP8 (gene 841)
assay_remarks: LTEA_HepaRG_CASP8: Life Technologies and Expression Analysis (LTEA) Assay for cysteine-aspartic acid protease (CASP8) using HepaRG (AID 2283480)
conditions_used: mRNA level, 48 h; actives raise or lower the signal
Active and inactive are the calls of the source. How the source made its calls: active means hit-call score of the fitted dose curve at least 0.9, where 1 is the maximum; inactive means score below 0.9.
assay_endpoint: AC50

[
  {
    "compound": "O=C(O)Cc1cc(I)c(Oc2cc(I)c(O)c(I)c2)c(I)c1",
    "AC50": "56.7 µM (active)"
  },
  {
    "compound": "CCCCCCCCCCCCc1ccccc1S(=O)(=O)O",
    "AC50": "inactive"
  },
  {
    "compound": "CN1CCN(c2ccccc2/C=C2\\SCCN(c3ccc(Cl)c(Cl)c3)C2=O)CC1",
    "AC50": "93.4 µM (active)"
  },
  {
    "compound": "CC#C[C@]1(O)CC[C@H]2[C@@H]3CCC4=CC(=O)CCC4=C3[C@@H](c3ccc(N(C)C)cc3)C[C@@]21C",
    "AC50": "27.6 µM (active)"
  },
  {
    "compound": "Cc1cc(C)c(O)c(C)c1",
    "AC50": "inactive"
  }
]

Query string: Consider the compound `CN1CCC[C@H]1c1cccnc1` and give its measured AC50.
Result string: inactive

Query string: Looking for the measured AC50 of `O=c1c(-c2ccc(O)cc2)coc2cc(O)ccc12` , can you help?
Result string: inactive

Query string: Which AC50 value belongs to `CCCCCCCCC(=O)O` ?
Result string: inactive

Query string: Field request: AC50 | item: OC1CCC(C2CCCCC2)CC1 (stereo not drawn)
Result string: inactive

Query string: Which AC50 reading was recorded for the compound CCc1ccc(CCOc2ccc(CC3SC(=O)NC3=O)cc2)nc1 (stereo not drawn) ?
Result string: inactive

Query string: Entry `OCCC(F)(F)C(F)(F)C(F)(F)C(F)(F)C(F)(F)C(F)(F)C(F)(F)C(F)(F)F` has what AC50?
Result string: inactive

Query string: What measured AC50 goes with `CC(C)(C)c1cc(C(C)(C)C)c(O)c(C(C)(C)C)c1` ?
Result string: inactive

Query string: Fill blank: measured AC50 of the compound `CCC(=C(c1ccc(O)cc1)c1ccc(OCCN(C)C)cc1)c1ccccc1` is ____.
Result string: 75.9 µM (active)

Query string: Name the reported AC50 value associated with the compound CCc1nn(C2CCCCC2)c2cc(C3(C#N)CCC(C(=O)O)CC3)ccc12 (stereo not drawn)
Result string: inactive

Query string: GET /values?readout=AC50&item= `OC1CCCCC1`
Result string: inactive

Query string: Name the reported AC50 value associated with the compound `CCCCCCCCCCCCN1CCCC1=O`
Result string: inactive

Query string: Tell me the measured AC50 of COCC(C)O (stereo not drawn) , please.
Result string: inactive

Query string: Sample NC(=O)N1C(=O)C(C(=O)c2cc(Cl)cs2)c2cc(F)c(Cl)cc21 (stereo not drawn) — what was its AC50?
Result string: 19.2 µM (active)

---

tested_system: human Dual Specificity Protein Phosphatase 3 (DUSP3), DUSP3 (gene 1845)
assay_remarks: NVS_ENZ_hDUSP3: NovaScreen (NVS) Enzymatic Assay for human Dual Specificity Protein Phosphatase 3 (DUSP3) (AID 2283152);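 also: phosphatase activity of recombinant human DUSP3 on a fluorogenic substrate without cells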
The source made the active and inactive calls. How the source made its calls: active means hit-call score of the fitted dose curve at least 0.9, where 1 is the maximum; inconclusive means response in the unintended direction; inactive means score below 0.9.
In this exercise, the only acceptable responses are active, inactive

Query string: Could you kindly confirm the outcome this assay logged for `O=C(O)Cc1cc(I)c(Oc2cc(I)c(O)c(I)c2)c(I)c1` ?
Result string: active

Query string: # lookup: test call for `CC#C[C@]1(O)CC[C@H]2[C@@H]3CCC4=CC(=O)CCC4=C3[C@@H](c3ccc(N(C)C)cc3)C[C@@]21C`
Result string: inactive

Query string: Returns: the outcome recorded for `CCCCCCCCCCCCCCCS(=O)(=O)Oc1ccccc1` in this assay.
Result string: inactive

Query string: Answer briefly: the call reported for `Cc1oc(-c2ccccc2)nc1CCOc1ccc(C[C@H](Nc2ccccc2C(=O)c2ccccc2)C(=O)O)cc1` in this assay.
Result string: active

Query string: Dear all, I need the recorded test outcome for `CCCOc1sc(C(=O)N2CCC(c3cc(CN)ccc3F)CC2)c(C)c1Br` , thank you.
Result string: active

Query string: Tell me the recorded outcome of this test for `CCCCCCCCOC(=O)CCCCCCCCC(=O)OCCCCCCCC` .
Result string: inactive

Query string: Hey, what did the test say about `CC(C)(C)CC(C)(C)c1ccc(O)c(-n2nc3ccccc3n2)c1` ?
Result string: active

---

Read-out: Alkaline Phosphatase, Placental (ALPP) gene, ALPP (gene 250)
assay_remarks: LTEA_HepaRG_ALPP: Life Technologies and Expression Analysis (LTEA) Assay for Alkaline Phosphatase, Placental (ALPP) gene using HepaRG (AID 2283468)
conditions_used: mRNA level, 48 h; actives raise or lower the signal
The source made the active and inactive calls. The calls were made as follows: active = hit-call score of the fitted dose curve at least 0.9, where 1 is the maximum; inactive = score below 0.9.
The reply should name one outcome from YES = active, NO = inactive

Query string: Answer briefly: the call reported for `O=c1c(-c2ccc(O)cc2)coc2cc(O)ccc12` in this assay.
Result string: NO

Query string: Just curious, what result did CCc1ccc(CCOc2ccc(CC3SC(=O)NC3=O)cc2)nc1 (stereo not drawn) get here?
Result string: YES

Query string: Fill in: this test's call for OC1CCC(C2CCCCC2)CC1 (stereo not drawn) is ___
Result string: NO

Query string: Please let me know the test result on file for `CCCCCCCCCCCCCCCS(=O)(=O)Oc1ccccc1` .
Result string: NO

Query string: Check the results log: what was the call for `C#C[C@]1(O)CC[C@H]2[C@@H]3CCC4=CC(=O)CC[C@@H]4[C@H]3CC[C@@]21C` ?
Result string: YES

Query string: For `Cc1cc(C)c(O)c(C)c1` , which call appears in the assay record?
Result string: NO

Query string: Which result was noted for this compound in the test: CCC(C)(C)C1CCC(O)CC1 (stereo not drawn)
Result string: NO

Query string: Hey, what did the test say about `c1ccc2c(c1)ccc1ccccc12` ?
Result string: NO

Query string: Fill in: this test's call for `CC(C)(C)c1cc(C(C)(C)C)c(O)c(C(C)(C)C)c1` is ___
Result string: NO

Query string: Could you please tell me the result logged for `CC1=C(/C=C/C(C)=C/C=C/C(C)=C/C(=O)O)C(C)(C)CCC1` in this assay?
Result string: NO

Query string: Which outcome did this test record for the compound `CN1CCN(c2ccccc2/C=C2\SCCN(c3ccc(Cl)c(Cl)c3)C2=O)CC1` ?
Result string: YES

Query string: Tell me the assay call for `CCCCCCCCCCCCN1CCCC1=O` please.
Result string: NO

Query string: Hi, do you know how `CCN(CC)CCNc1ccc(CNC=O)c2sc3ccc(OC)cc3c(=O)c12` came out in this test?
Result string: NO
